Experiment: Area under curve (AUC) was measured after oral dosing at 30 mg/kg in rat
Type: ADME, organism-based
Set-up: dose 30 mg/kg, route oral
Settings: in vivo
criterion met means recorded AUC is 10000 ng·h/mL or above; criterion not met means it is below 10000 ng·h/mL.

1. N=C(N)c1ccc(CNC(=O)[C@@H]2CCCN2C(=O)[C@H](NS(N)(=O)=O)C(c2ccccc2)c2ccccc2)cn1 | criterion not met
2. COC(=O)N[C@@H](C(=O)N1CCC[C@H]1C(=O)NCc1coc(C(=N)N)c1)C(c1ccccc1)c1ccccc1 | criterion met
3. N=C(N)c1ccc(CNC(=O)[C@@H]2CCCN2C(=O)[C@H](NS(N)(=O)=O)C(c2ccccc2)c2ccccc2)c(F)c1 | criterion not met
4. CS(=O)(=O)N[C@@H](C(=O)N1CCC[C@H]1C(=O)NCc1ccc(C(=N)N)s1)C(c1ccccc1)c1ccccc1.N=C(N)c1ccccc1 | criterion not met
5. CS(=O)(=O)N[C@@H](C(=O)N1CCC[C@H]1C(=O)NCc1ccc(C(=N)N)cc1)C(c1ccccc1)c1ccccc1 | criterion not met
6. COC(=O)N[C@@H](C(=O)N1CCC[C@H]1C(=O)NCc1ccc(C(=N)N)nc1)C(c1ccccc1)c1ccccc1 | criterion met
